Item-by-item account of herbicidal efficacy, Monochoria vaginalis
test system: Monochoria vaginalis; assay: Paddy herbicidal activity test; assay type: in vivo; details: 5 g a.i./10 a; irrigated pot, treated at 3.5 leaf stage of Echinochloa crus-galli; 30 days at 30° C.

Task item: Suppose we examine the compound N#Cc1cnn(-c2nn3c(c2Cl)CCCC3)c1NC(=O)Cc1ccccc1 ; what herbicidal efficacy, Monochoria vaginalis value has been reported?
Reply: 10 (10: 100%)

Task item: Need herbicidal efficacy, Monochoria vaginalis of N#Cc1cnn(-c2nn3c(c2Cl)CCCC3)c1NC(=O)CCc1ccccc1 , thanks.
Reply: 10 (10: 100%)

Task item: Which value of herbicidal efficacy, Monochoria vaginalis has been reported for Cc1cccc(CC(=O)Nc2c(C#N)cnn2-c2nn3c(c2Cl)CCCC3)c1 in the records?
Reply: 10 (10: 100%)

Task item: Name the recorded herbicidal efficacy, Monochoria vaginalis for O=C(Nc1c([N+](=O)[O-])cnn1-c1nn2c(c1Cl)CCCC2)c1ccccc1 [Control agent 2.19, reference compound] .
Reply: 1 (1: 10% to less than 20%)

====

tested on: Chenopodium album; assay: Weed foliar treatment test (Test 3, 1.0 to 2.0 leaf stage); format: in vivo; conditions: 5 g a.i./10 a; foliar spray at 1.0 to 2.0 leaf stage of Digitaria ciliaris; 3 weeks at 25° C.
This listing pairs compounds with measured herbicidal efficacy, Chenopodium album.

Illustrative cases are given below, each with its answer.
compound	measure.name	endpoint.value
N#Cc1cnn(-c2nn3c(c2Cl)CCCC3)c1NC(=O)c1ccccc1 [Control agent 4.192, reference compound]	herbicidal efficacy, Chenopodium album	4 (4: 40% to less than 50%)
Cc1cccc(CC(=O)Nc2c(C#N)cnn2-c2nn3c(c2Cl)CCCC3)c1 [Compound 9]	herbicidal efficacy, Chenopodium album	10 (10: 100%)
O=C(Cc1ccccc1)Nc1c([N+](=O)[O-])cnn1-c1nn2c(c1Cl)CCCC2 [Compound 5]	herbicidal efficacy, Chenopodium album	10 (10: 100%)
O=C(Nc1c([N+](=O)[O-])cnn1-c1nn2c(c1Cl)CCCC2)c1ccccc1 [Control agent 2.19, reference compound]	herbicidal efficacy, Chenopodium album	4 (4: 40% to less than 50%)
N#Cc1cnn(-c2nn3c(c2Cl)CCCC3)c1NC(=O)Cc1ccc(F)cc1 [Compound 15]	herbicidal efficacy, Chenopodium album	10 (10: 100%)
N#Cc1cnn(-c2nn3c(c2Cl)CCCC3)c1NC(=O)Cc1ccccc1 [Compound 3]	herbicidal efficacy, Chenopodium album	10 (10: 100%)
N#Cc1cnn(-c2nn3c(c2Cl)CCCC3)c1NC(=O)Cc1cccc(F)c1 [Compound 11]	herbicidal efficacy, Chenopodium album	10 (10: 100%)
N#Cc1cnn(-c2nn3c(c2Cl)CCCC3)c1NC(=O)CCc1ccccc1 [Compound 19]	herbicidal efficacy, Chenopodium album	10 (10: 100%)

// switching to the query compound
Task item: Any idea what its herbicidal efficacy, Chenopodium album is? The compound is Cc1ccccc1CC(=O)Nc1c(C#N)cnn1-c1nn2c(c1Cl)CCCC2 [Compound 6]
Reply: 10 (10: 100%)
